tested on: UniProt Q8WUI4
Sequence (Q8WUI4 whole entry): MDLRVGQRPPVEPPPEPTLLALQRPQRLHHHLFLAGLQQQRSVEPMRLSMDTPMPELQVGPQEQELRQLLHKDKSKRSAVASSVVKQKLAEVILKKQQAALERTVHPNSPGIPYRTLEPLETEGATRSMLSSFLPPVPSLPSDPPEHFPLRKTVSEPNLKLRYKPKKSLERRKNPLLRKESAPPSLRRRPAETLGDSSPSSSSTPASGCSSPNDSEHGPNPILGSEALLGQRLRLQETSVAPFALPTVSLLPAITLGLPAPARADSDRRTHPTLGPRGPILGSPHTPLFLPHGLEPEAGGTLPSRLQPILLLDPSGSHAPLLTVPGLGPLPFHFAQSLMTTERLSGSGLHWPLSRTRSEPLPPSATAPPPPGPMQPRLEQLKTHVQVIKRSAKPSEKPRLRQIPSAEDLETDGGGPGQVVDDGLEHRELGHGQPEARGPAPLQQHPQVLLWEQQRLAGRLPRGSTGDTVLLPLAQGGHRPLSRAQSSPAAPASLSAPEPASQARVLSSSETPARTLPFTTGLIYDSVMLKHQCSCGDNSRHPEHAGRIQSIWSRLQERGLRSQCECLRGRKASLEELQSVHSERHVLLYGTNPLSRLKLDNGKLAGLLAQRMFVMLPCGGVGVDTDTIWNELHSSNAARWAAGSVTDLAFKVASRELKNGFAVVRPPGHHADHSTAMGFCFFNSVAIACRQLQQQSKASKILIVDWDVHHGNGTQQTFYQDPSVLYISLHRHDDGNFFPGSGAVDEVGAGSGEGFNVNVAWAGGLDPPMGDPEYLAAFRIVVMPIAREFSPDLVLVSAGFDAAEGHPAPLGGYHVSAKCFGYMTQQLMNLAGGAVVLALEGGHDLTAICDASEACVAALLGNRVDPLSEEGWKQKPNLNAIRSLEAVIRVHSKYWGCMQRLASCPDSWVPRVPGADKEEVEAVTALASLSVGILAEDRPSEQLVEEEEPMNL
assay details: Two-step fluorescence assay for determination of IC50
Assay type: biochemical
measurement kind: IC50 (µM)
Kindly answer with a numeric value in µM, unit omitted.

// solved cases for IC50 follow
* O=C(NO)C(F)(F)C(F)(F)C(F)(F)C(F)(F)C(F)(F)C(F)(F)C(=O)Nc1ccc(-c2ccccc2)cc1 [LU229] | 22
* Cc1ccc(NC(=O)C(F)(F)C(F)(F)C(F)(F)C(F)(F)C(F)(F)C(F)(F)C(=O)NO)cc1 [LU222] | 84.8
* O=C(NO)C(F)(F)C(F)(F)C(F)(F)C(F)(F)C(F)(F)C(F)(F)C(=O)Nc1ccccc1 [LU210] | 14.8

Next molecule, please.
Looking up Cc1ccc(NC(=O)C(F)(F)C(F)(F)C(F)(F)C(F)(F)C(F)(F)C(F)(F)C(=O)NO)cc1C [LU228] , I see its IC50 listed as 5.51
